- Organism: Homo sapiens
- measurement.notes: Activity at human recombinant UCK by Michaelis-Menten equation analysis
Calls of active or inactive are those of the source. No rule for the calls is given here.
endpoint.label: Activity

[[record]]
compound_structure_string = "O=c1[nH]c(=O)n(C/C=C/CCP(=O)(O)O)cc1Cl"
reading = "inactive"

[[record]]
compound_structure_string = "COP(=O)(C/C=C\\Cn1cc(C)c(=O)[nH]c1=O)OC"
reading = "inactive"

[[record]]
compound_structure_string = "CCOP(=O)(CC/C=C/Cn1cc(Cl)c(=O)[nH]c1=O)OCC"
reading = "inactive"

[[record]]
compound_structure_string = "Cc1cn(C/C=C/CP(=O)(O)O)c(=O)[nH]c1=O"
reading = "inactive"

[[record]]
compound_structure_string = "COP(=O)(C/C=C/Cn1cc(Br)c(=O)n(C(=O)c2ccccc2)c1=O)OC"
reading = "inactive"

[[record]]
compound_structure_string = "O=c1[nH]c(=O)n(C/C=C/CP(=O)(O)O)cc1F"
reading = "inactive"

